// provenance: ChEMBL document CHEMBL1201862

tested on: SW-620; assay: NCI tumour cell line growth inhibition, 48 h
Calls of active or inactive are those of the source. No stated cut-off is given here; in the data, active = GI50 up to about 1.1 µM and inactive = higher.
GI50 values by entry

compound	targetDesc	GI50
O=c1oc2ccccc2cc1-c1ccc([N+](=O)[O-])cc1	SW-620	25.8 µM (inactive)
Cc1nnc2c3c(-c4ccccc4)c(-c4ccccc4)oc3nc(N(C)C)n12	SW-620	44.6 µM (inactive)
O/N=N/c1ccc([SH2]c2ccc3ccccc3c2)cn1	SW-620	28.3 µM (inactive)
CSc1ccc(-c2cn3ccsc3n2)c(O)c1	SW-620	36.1 µM (inactive)
C=C1CCC([N+](=O)[O-])[C@](C)(N=O)CC[C@@H]2C1CC2(C)C (some centres not stated)	SW-620	16.9 µM (inactive)
CC1=NN(c2ccccc2)C(=O)C1/N=N/c1ccc(S(N)(=O)=O)cc1 (configuration not stated)	SW-620	> 100 µM (inactive)
CC(C)=NN/C=N\C(C#N)=C(/N)C#N	SW-620	> 100 µM (inactive)
CCOC(=O)[C@@]1(C(C)=O)CC(C)=C(C)C[S@@+]1[O-]	SW-620	> 100 µM (inactive)
Cc1ccc([N+](=O)[O-])cc1NC(=O)C(=O)Cc1occc(=O)c1O	SW-620	> 100 µM (inactive)
C[C@H]1C(=O)C2=C[C@H]1CCC(=O)[C@]1(C)CCCC(C)(C)[C@H]1C[C@H]2O	SW-620	14.9 µM (inactive)
Nc1ncnc2c1ncn2C1OC(CO)C(O)C1N (configuration not stated)	SW-620	> 100 µM (inactive)
COc1ccc(-c2nc(SC)n(C3OC(COC(C)=O)C(OC(C)=O)C(OC(C)=O)C3OC(C)=O)c(=O)c2C#N)cc1 (configuration not stated)	SW-620	> 100 µM (inactive)
c1ccc(/N=C2\c3ccsc3/C(=N/c3ccccc3)c3ccsc32)cc1	SW-620	1.89 µM (inactive)
C=C1C(=O)O[C@H]2C3C(=C(C)CC[C@@H]12)C(=O)[C@@H]1OC31C (some centres not stated)	SW-620	0.685 µM (active)
C=CCC1(OCc2ccccc2)C(=O)C(=O)OC1C1COC(C)(C)O1 (configuration not stated)	SW-620	> 100 µM (inactive)
CCOC(=O)C1C(c2ccc(OC)cc2)c2c(nn(-c3ccccc3)c2O)CC1(C)O (configuration not stated)	SW-620	18.5 µM (inactive)
Cc1cc(NC(=O)C(=O)Cc2cnc3ccccc3n2)c(S(=O)(=O)O)cc1Cl	SW-620	> 100 µM (inactive)
COc1ccc(-c2cc3ccccc3oc2=O)cc1OC	SW-620	> 100 µM (inactive)
N[C@H]1CCCC[C@@H]1N1C(=O)c2ccccc2C1(O)c1ccc(Cl)cc1 (some centres not stated)	SW-620	6.3 µM (inactive)
COc1ccc(C2c3cc4c(cc3OC(N3CCOCC3)C2C)OCO4)cc1 (configuration not stated)	SW-620	29.1 µM (inactive)
Cc1cc([N+](=O)[O-])c(C)c2c1[nH]c1ccc(Cl)cc12	SW-620	71.9 µM (inactive)
N#Cc1c(Cl)nc2ccccc2c1N=[N+]=[N-]	SW-620	1.73 µM (inactive)
